Listed sequences paired with reported pull-down binding Z-score
- Test system: TO-N3 (biotin conjugate)
- protocol: pull-down binding Z-score (relative to library population); higher = stronger binding
- test_conditions: RNA library: Library-2
observed_property: pull-down binding Z-score

residue_sequence="UCUUUCAUUUUGGAUUUGACU [hsa-mir-766]" recorded_number=-0.0798
residue_sequence="UGCUAUUAGAAAGUAAUGGCA [hsa-mir-548ba]" recorded_number=0.776
residue_sequence="CAGAGGGAGGCCAAGAAGACCUCUG [hsa-mir-4793]" recorded_number=-0.402
residue_sequence=AUGGUCUUUGUUCUUUUUUUUGUAUGAAAAUGCCUUUUUACCUUUUGCUAUGGGUAUUAUUGCUAU recorded_number=-0.507
residue_sequence=AUGAUGUUUCUUUUUUAGCACAU recorded_number=-1.09

----------
- Test system: TO-N3-2 (biotin conjugate)
- protocol: pull-down binding Z-score (relative to library population); higher = stronger binding
- test_conditions: RNA library: Library-2
Rule: Met for pull-down binding Z-score not less than -0.3, Not met for anything less.

residue_sequence=AACAGCAGACAACCCUUAAGGGUGUAGAAGCUGUU target_of_assay="TO-N3-2 (biotin conjugate)" group_label="Not met"
residue_sequence="CCAAGCUUAGUUUGG [hsa-mir-1302-11_1302-10_1302-3_1302-2_1302-9]" target_of_assay="TO-N3-2 (biotin conjugate)" group_label="Not met"
residue_sequence="GGCUGGGGUCACUGACUCUGCUUCCCCUGCC [hsa-mir-6799]" target_of_assay="TO-N3-2 (biotin conjugate)" group_label=Met
residue_sequence=CCACAUUUUCACCGAGGCCACGCGGAGUACGAUCGAGUGUACAGUGAACAAUGCUAGG target_of_assay="TO-N3-2 (biotin conjugate)" group_label=Met
residue_sequence="GACAGGCUGGCCUCUGGAUGACCUGC [hsa-mir-5189]" target_of_assay="TO-N3-2 (biotin conjugate)" group_label=Met
residue_sequence="CUGGGUGGGACACUCAG [hsa-mir-4692]" target_of_assay="TO-N3-2 (biotin conjugate)" group_label=Met
residue_sequence="UUUUUUUCCAAUGAAAAUAACGAAACCUGUUAUUUCCCAUUGAGGGGGAAAAA [hsa-mir-4484]" target_of_assay="TO-N3-2 (biotin conjugate)" group_label="Not met"
residue_sequence="AGAAGCUAAAGUGUAGAUCAAACGCAUAAUGGCUGA [hsa-mir-4500]" target_of_assay="TO-N3-2 (biotin conjugate)" group_label=Met
residue_sequence="CAAUCACAUGUAAUUAGGUGUGAUUG [hsa-mir-510]" target_of_assay="TO-N3-2 (biotin conjugate)" group_label="Not met"
residue_sequence="UGCCAUUAAAAGUAAUGGCA [hsa-mir-548i-3_548i-2_548i-1]" target_of_assay="TO-N3-2 (biotin conjugate)" group_label="Not met"
residue_sequence="AUCCCUUAGAUGCUAAGAUGGGGAU [hsa-mir-145]" target_of_assay="TO-N3-2 (biotin conjugate)" group_label="Not met"
residue_sequence="UCCGUAAGUAGGAUACUUACCUG [U1snRNP5ss-21]" target_of_assay="TO-N3-2 (biotin conjugate)" group_label="Not met"
residue_sequence="GUGGAACUGACCUGCCCCCUUUCUC [hsa-mir-6817]" target_of_assay="TO-N3-2 (biotin conjugate)" group_label=Met

----------
- Tested on: TO-N3 (biotin conjugate)
- protocol: pull-down binding Z-score (relative to library population); higher = stronger binding
- test_conditions: RNA library: Library-2
observed_property: pull-down binding Z-score

residue_sequence="CUGGCUUCUCUGGUUCUCCAGCUUACAG [hsa-mir-1269b]" observed_property="pull-down binding Z-score" recorded_number=-0.0501
residue_sequence="UGCAGUGAGCAACCUACACAACUGCA [hsa-mir-5589]" observed_property="pull-down binding Z-score" recorded_number=-0.0697
residue_sequence="UUCAGAUUUUGGAACAUUUCGGAUUUUGGA [hsa-mir-1290]" observed_property="pull-down binding Z-score" recorded_number=-0.297
residue_sequence="UCCAGCUGUGUGAUAUUCUGCUG [hsa-mir-19b-1]" observed_property="pull-down binding Z-score" recorded_number=0.909
residue_sequence="GUUUACGUGAUUCCUGGUUAAUC [hsa-mir-376b]" observed_property="pull-down binding Z-score" recorded_number=-0.0962
residue_sequence=CAAGGGUACACACCACUG observed_property="pull-down binding Z-score" recorded_number=0.81
residue_sequence=CCGAAAUUAUGUCUUUACUGGUUAUCGUGUAACUAAAAACAGUAAAGUACAAAUAGG observed_property="pull-down binding Z-score" recorded_number=-0.399
residue_sequence="AUAUGUGUGUAUAUAUGUACACAUAC [hsa-mir-466]" observed_property="pull-down binding Z-score" recorded_number=-0.604
residue_sequence="CAAGGAAGAGUCACAGUCUCUUCCUUG [hsa-mir-659]" observed_property="pull-down binding Z-score" recorded_number=-0.699
residue_sequence=GAAUGCGUCAUCAUCUGAAGCAUUU observed_property="pull-down binding Z-score" recorded_number=-1.1
residue_sequence="AGUCACUUAGAUUACAUGUCACU [hsa-mir-892c]" observed_property="pull-down binding Z-score" recorded_number=-0.172
residue_sequence="UGUUGACUGAAUAAUAAACA [hsa-mir-3139]" observed_property="pull-down binding Z-score" recorded_number=-1.23
residue_sequence="GCUAGAAAAUCAGC [SHAPE_invivo_SARS-CoV-2_Motif_531]" observed_property="pull-down binding Z-score" recorded_number=-0.0963

----------
- System: TO-3-N3 (biotin conjugate)
- protocol: pull-down binding Z-score (relative to library population); higher = stronger binding
- test_conditions: RNA library: Library-2
Documented pull-down binding Z-score across a set of sequences
observed_property: pull-down binding Z-score

residue_sequence="AGUCUCUGAAGAGAGCUGUGGACUGA [hsa-mir-6721]" observed_property="pull-down binding Z-score" result=0.726
residue_sequence="UCUUUGGUAAUAAGGUUUGGCAAAGA [hsa-mir-576]" observed_property="pull-down binding Z-score" result=1.04
residue_sequence=CUAAUAACACUAAAGGUUCAUUGCCUAUUAAUGUUAUAG observed_property="pull-down binding Z-score" result=0.171
residue_sequence="GGCUCGUCUGUGUUGCCAAUCGACUC [hsa-mir-1307]" observed_property="pull-down binding Z-score" result=0.723
residue_sequence="AUUUGCCAUCACCUUUACCUUUAAUGGCAAAA [hsa-mir-548av]" observed_property="pull-down binding Z-score" result=0.0312
residue_sequence="AGGAGAAGGUGAGACCAAUGUCCUGGGUGCCACUCCU [hsa-mir-6124]" observed_property="pull-down binding Z-score" result=-0.524
residue_sequence="UCUGCUUUAUUUCAUCAAAGCAGA [hsa-mir-4773-1]" observed_property="pull-down binding Z-score" result=-0.916
residue_sequence="CAGCCUGUUGUCAAGGCUG [hsa-mir-3130-1]" observed_property="pull-down binding Z-score" result=0.535
residue_sequence="GCAUCCUUGGAAUCUGCACUCAAGGGAUGC [hsa-mir-5089]" observed_property="pull-down binding Z-score" result=0.451
residue_sequence=UAGUGCUAUGCAGACAAUGCUUUUCACUA observed_property="pull-down binding Z-score" result=-0.863
residue_sequence="CCUCUUGAGUGCAUUAAAGACCUUCUAGCACGUGCUGGUAAAGCUUCAUGCACUUUGUCCGAACAACUGGACUUUAUUGACACUAAGAGG [SHAPE_invitro_SARS-CoV-2_Multi_2_ComplexLevel_1]" observed_property="pull-down binding Z-score" result=0.756
residue_sequence="UUGGCACAGGGAAGCGAGUCUGCCAA [hsa-mir-195]" observed_property="pull-down binding Z-score" result=0.0632
residue_sequence=UAUUUCAUAACAGAUGCGCAAACAGGUUCAUCUAAGUGUGUGUGUUCUGUUAUUGAUUUA observed_property="pull-down binding Z-score" result=-1.06
residue_sequence=CAAGGGUACACACCACUG observed_property="pull-down binding Z-score" result=0.824
residue_sequence="GAAGAAGAAGAAGAAGAAGAAGAAGAAGAAGAAGAAGAAGAAGAAGAA [r(GAA)16]" observed_property="pull-down binding Z-score" result=1.7
residue_sequence="GCUCACCGUGCCCAGUGAGC [IAV_invivo_M1_M2_7_Motif_5+IAV_invivo_M1_M2_7_Motif_5]" observed_property="pull-down binding Z-score" result=0.297

----------
- Test system: TO-3-N3-2 (biotin conjugate)
- protocol: pull-down binding Z-score (relative to library population); higher = stronger binding
- test_conditions: RNA library: Library-2
observed_property: pull-down binding Z-score

residue_sequence="UUUGCUAUUUUUUUUUAAUGGCAAA [hsa-mir-548ac]" result=-0.0611
residue_sequence="CUCUCAUCGAUCUCCAAGAACUUGGAAAGUAUGAGCAG [SHAPE_invitro_SARS-CoV-2_Motif_456]" result=-0.286
residue_sequence=UGCACUUGACCCUCUCUCAGAAACAAAGUGUA result=-0.162
residue_sequence="GCGCUGCCAGAAACUGGCGGCGC [mismatch-UG]" result=-0.0108
residue_sequence="GGAGUCCUCUAGACACC [hsa-mir-6510]" result=-0.348
residue_sequence="UGAGGUACUUCCUUC [hsa-mir-1205]" result=-0.247
residue_sequence="GCCAGUUGGAGGC [IAV_invivo_PB1_2_Motif_15+IAV_invivo_PB1_2_Motif_15]" result=-0.201
residue_sequence="GCUAGAAAAUCAGC [SHAPE_invivo_SARS-CoV-2_Motif_531]" result=0.246
residue_sequence="CUUCGGUAUUCAUCAAAAAUACCAAAG [hsa-mir-4735]" result=-0.63
residue_sequence="UGAUAAAUUCA [SHAPE_invivo_SARS-CoV-2_Motif_325]" result=-0.375
residue_sequence="UGUAUGUGUAAAUACAUAUCCACACA [hsa-mir-4789]" result=-0.00888
residue_sequence="GUCCUAAAGUGAAGUAUUUAUACUUUAUUAAAGGAU [SHAPE_invivo_SARS-CoV-2_Motif_244]" result=-0.605
residue_sequence=CAACUCUCAUGAAGUGUGAUCAUUGUGGUGAAACUUCAUGGCAGACGGGCGAUUUUGUUAAAGCCACUUGCGAAUUUUG result=-0.197
residue_sequence="CUGUCCCCUGCCACUGGGUGACC [hsa-mir-7114]" result=0.144
residue_sequence=ACAGACUUCAUUAAGAUGUGGUGCUUGCAUACGUAGACCAUUCUUAUGUUGUAAAUGCUGUUACGACCAUGUCAUAUCAACAUCACAUAAAUUAGUCUUGUCUGU result=-0.127
residue_sequence="AGUGCUAGGACACU [hsa-mir-374c]" result=-0.413
residue_sequence="UGGUUAGCUUUUUUUUUUUUUUGAGAUGGAGUCUGGCUC [hsa-mir-8086]" result=0.519
residue_sequence="CAUGCAGCAUGCUUGUCUG [hsa-mir-767]" result=-0.377
residue_sequence="GCGUCACGUGCACCCAAGUGACGC [hsa-mir-6786]" result=0.171
residue_sequence="CUCAGAGGGCUGAAGUGGUUGUGGGGAGGGGCUUCUGGG [hsa-mir-4296]" result=4.91
residue_sequence="CGGGAACCUGCCUCCCG [hsa-mir-596]" result=-0.195
residue_sequence="AUCUACAAUGAU [DMSMaPseq_invitro_SARS-CoV-2_Motif_243]" result=-0.742
residue_sequence=GGCUUCAUUUAAUUAUUUGAAGUC result=-0.711
residue_sequence="UUGGUGACAGCAGCAGUAGAGUUGCCAG [hsa-mir-6501]" result=-0.445
